Examples of compounds with documented concentration at 1 h follow.
Experiment: Absorption and distribution: concentration in blood and organs after oral administration, bioassay by cup method
Type: in vivo
Details: rat; rats, fasted, 10 mg/kg oral, serum, 1 hr after administration; Mean ± S.D. (n=5); read-out: Concentration in organs: Serum
Where a name gives a salt, the structure may show the parent alone.
Numeric only. Scale: ng/mL

[[record]]
compound = "CCNCC1CCN(c2c(F)cc3c(=O)c(C(=O)O)cn(C4CC4)c3c2F)C1 (centres unmarked) [Example 2, hydrochloride]"
recorded_result = 1300


(Q) Specify reported concentration at 1 h for the compound shown: CCNCC1CCN(c2c(F)cc3c(=O)c(C(=O)O)cn(C4CC4)c3c2Cl)C1 (centres unmarked)
(A) 1120
